All values here come from the METLIN SMRT retention time set (Domingo-Almenara et al. 2019).

measurement-description: gradient 5% acetonitrile 3 min, to 50% in 2 min, to 85% in 15 min, held 3 min, 100 µL/min
test-context: column: Zorbax Extend-C18 2.1 x 50 mm; eluents: water / acetonitrile, 0.1% formic acid
reported-endpoint: RP-LC retention time
Answers without a unit are incomplete; give the number and then its unit.

Entry CCOC(=O)C1=C(c2ccc(OC)cc2)NC(=O)NC1c1ccc(OC)cc1 (stereo not given) has what RP-LC retention time?
840 s

Consider next the compound "COCc1cn(C2CN(C(=O)c3cc(C)nn3C)C2)nn1" in the same way.
581 s

* * *

measurement-description: gradient 5% acetonitrile 3 min, to 50% in 2 min, to 85% in 15 min, held 3 min, 100 µL/min
test-context: column: Zorbax Extend-C18 2.1 x 50 mm; eluents: water / acetonitrile, 0.1% formic acid
Binarize RP-LC retention time at 700 s; below is True, at or above is False.

{"columns": ["compound", "class"],
 "data": [
  ["Cc1ccc(-c2cc(C(=O)N3CCN(c4ccc(N5CCOCC5)nn4)CC3)[nH]n2)c(C)c1", "True"],
  ["O=C(NCCCN1CCOCC1)c1cc2occc2c(Nc2ccc(F)cc2)n1", "True"],
  ["Cc1noc2nc(C)n(CC(=O)NCC(C)c3ccccc3)c(=O)c12 (stereo not drawn)", "False"],
  ["O=C(Nc1cc(Cl)ccc1Cl)C1CN(C(=O)c2ccc(F)c(F)c2)C1", "False"],
  ["Cc1sc(NC(=O)c2cccs2)nc1-c1ccc2c(c1)NC(=O)C(C)O2 (stereo not drawn)", "False"],
  ["CC(C)c1nc2cc3c(cc2n1CC(=O)Nc1ccc2c(c1)OCCO2)OCCO3", "True"]
]}

Bench note: check whether "COc1ccc(NC(=O)N2CCC3(CC2)NC(=O)c2cc(C)ccc2N3C)cc1" shows RP-LC retention time below 700 s
False

Consider next the compound "O=C(NCCc1cnc[nH]1)c1cc(-c2cccnc2)nc2ccccc12" in the same way.
True

Consider next the compound CC1CCc2c(sc3nc(CCC(=O)NCCc4c[nH]c5ccccc45)[nH]c(=O)c23)C1 (stereo not drawn) in the same way.
False

Consider next the compound CC(C)c1ccc2occ(CC(=O)N(Cc3ccc(N(C)C)cc3)C3CCS(=O)(=O)C3)c2c1 (stereo not drawn) in the same way.
False

Consider next the compound "Cn1ncc2c3ccccc3n(CCCC(=O)NCc3cccs3)c2c1=O" in the same way.
False

* * *

measurement-description: gradient 5% acetonitrile 3 min, to 50% in 2 min, to 85% in 15 min, held 3 min, 100 µL/min
test-context: column: Zorbax Extend-C18 2.1 x 50 mm; eluents: water / acetonitrile, 0.1% formic acid
# binarize RP-LC retention time: threshold 700 s inclusive, high side Condition met, low side Condition not met

{"columns": ["compound", "class"],
 "data": [
  ["CCCCOC(=O)c1ccc(NC(=O)c2c(OC)cc(=O)n3c2CCCC3)cc1", "Condition met"],
  ["CN(Cc1ccccc1)C(=O)C1(c2ccc(NC(=O)C3CC3)cc2)CCCCC1", "Condition met"],
  ["Cc1cc(NC(=O)c2ccco2)c2cc(F)cc(F)c2n1", "Condition not met"],
  ["COc1ccc(-c2cc3c(=O)n(Cc4nc(-c5ccccc5OC)oc4C)ccn3n2)cc1OC", "Condition met"],
  ["CCCCn1cc(S(=O)(=O)Nc2cc(C)ccc2F)c2cccnc21", "Condition met"]
]}

Determine whether measured RP-LC retention time meets or exceeds 700 s for CCOCN(C(=O)Cn1c(C(C)O)nc2ccccc21)c1c(C)cccc1CC (centres undefined)
Condition met

Consider next the compound "Cc1ccc(C)c(-c2cn3ccn(-c4ccc(F)cc4)c(=O)c3n2)c1" in the same way.
Condition met

Consider next the compound CC(NC(=O)c1sc2ncccc2c1-n1cccc1)c1ccc2c(c1)OCCO2 (centres undefined) in the same way.
Condition met

Consider next the compound "CCN1CCn2cc(S(=O)(=O)Nc3ccc(C)cc3C)cc2C1=O" in the same way.
Condition met
